Target: Aurora-2 (Homo sapiens)
Sequence (O14965 1-403): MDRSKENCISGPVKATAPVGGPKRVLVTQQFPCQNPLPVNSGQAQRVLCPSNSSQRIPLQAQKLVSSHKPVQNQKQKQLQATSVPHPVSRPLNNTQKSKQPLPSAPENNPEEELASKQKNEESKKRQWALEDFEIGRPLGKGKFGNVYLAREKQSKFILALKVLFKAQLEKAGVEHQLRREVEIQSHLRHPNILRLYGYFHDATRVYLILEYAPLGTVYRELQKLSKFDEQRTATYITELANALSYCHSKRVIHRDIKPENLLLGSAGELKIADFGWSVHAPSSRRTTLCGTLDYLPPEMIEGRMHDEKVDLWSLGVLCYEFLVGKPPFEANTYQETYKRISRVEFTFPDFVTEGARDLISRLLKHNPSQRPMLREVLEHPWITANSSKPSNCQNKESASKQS
PARAMETER: Ki

// below: answered compounds
* Cc1cc(Nc2nc(-c3ccc(C#N)cc3)nc3ccccc23)[nH]n1 | < 100 nM
* OCCCc1cc(Nc2nc(-c3ccccc3)nc3ccccc23)[nH]n1 | < 100 nM
* Cc1cc(Nc2nc(-c3cccnc3)nc3ccccc23)[nH]n1 | < 100 nM
* Clc1ccc(-c2nc(Nc3cc(C4CC4)n[nH]3)c3ccccc3n2)cc1Cl | < 100 nM
* Cc1cc(Nc2nc(-c3ccccc3)nc3ccccc23)[nH]n1 | < 100 nM
* Cc1cc(Nc2nc(-c3ccccc3Cl)nc3ccccc23)n[nH]1 | < 100 nM
* c1ccc(-c2nc(Nc3n[nH]c4ccccc34)c3ccccc3n2)cc1 | 100 to 1000 nM
* c1ccc(COCCCc2cc(Nc3nc(-c4ccccc4)nc4ccccc34)[nH]n2)cc1 | < 100 nM
* OCC1CCN(c2nc(Nc3cc(C4CC4)n[nH]3)c3ccccc3n2)CC1 | < 100 nM
* Cc1cc(Nc2nc(N3CCN(C)CC3)nc3ccccc23)[nH]n1 | 100 to 1000 nM

Param readout= Ki; system= Aurora-2 (Homo sapiens); entry= CC(C)c1cc(Nc2nc(-c3ccccc3)nc3ccccc23)[nH]n1 ; returns value. < 100 nM

Param readout= Ki; system= Aurora-2 (Homo sapiens); entry= Cc1cc(Nc2nc(N3CCCCC3)nc3ccccc23)[nH]n1 ; returns value. < 100 nM

Form: Entry = Cc1cc(Nc2cc(-c3ccccc3)nc3ccccc23)n[nH]1 | System = Aurora-2 (Homo sapiens) | Ki = ____ 100 to 1000 nM

Test system Aurora-2 (Homo sapiens); read-out Ki; what value for Fc1cc(F)c2[nH]nc(Nc3nc(-c4ccccc4Cl)nc4ccccc34)c2c1 ? 1000 to 20000 nM

Give Ki (Aurora-2 (Homo sapiens)) of the following compound: COC(=O)c1cc(Nc2nc(-c3ccccc3)nc3ccccc23)[nH]n1 100 to 1000 nM

###

PARAMETER: melting point (°C)

[A] OCC1CCN(c2nc(Nc3cc(C4CC4)n[nH]3)c3ccccc3n2)CC1
[B] COc1cccc(-c2nc(Nc3cc(C)n[nH]3)c3ccccc3n2)c1
Select the item whose melting point value is smaller, choosing between A and B . Please reply using the label of the selected record. A

###

This section presents compounds with their documented Ki values.
Target: GSK-3β (AA 1-420) (Homo sapiens)
Sequence (P49841 whole entry, the tested form may be a part): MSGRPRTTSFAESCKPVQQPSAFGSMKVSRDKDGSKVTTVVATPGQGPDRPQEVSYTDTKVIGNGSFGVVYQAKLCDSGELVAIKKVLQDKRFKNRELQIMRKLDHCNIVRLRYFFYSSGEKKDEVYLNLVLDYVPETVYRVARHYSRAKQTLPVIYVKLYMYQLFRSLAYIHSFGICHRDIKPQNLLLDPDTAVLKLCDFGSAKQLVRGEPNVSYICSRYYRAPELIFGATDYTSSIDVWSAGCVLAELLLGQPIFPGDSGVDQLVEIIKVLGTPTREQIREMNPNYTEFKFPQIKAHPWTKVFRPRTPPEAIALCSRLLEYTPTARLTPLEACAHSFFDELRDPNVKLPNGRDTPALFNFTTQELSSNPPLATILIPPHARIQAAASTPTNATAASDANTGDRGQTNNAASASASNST

Some compounds with known Ki results, for comparison:
- FC(F)(F)c1ccccc1-c1nc(Nc2n[nH]c3ccccc23)cc(-c2ccccc2)n1: < 0.1 µM
- CC(C)(C)c1cc(Nc2nc(-c3ccccc3)nc3ccccc23)[nH]n1: 1 to 20 µM
- FC(F)(F)c1ccccc1-c1nc(Nc2n[nH]c3ccc(Br)cc23)c2ccccc2n1: < 0.1 µM
- O=c1cc2[nH]nc(Nc3nc(-c4ccccc4)nc4ccccc34)c2nn1-c1ccc(Cl)cc1: 0.1 to 1 µM

What does the data say about its Ki? Entry: COC(=O)c1cc(Nc2nc(-c3ccccc3)nc3ccccc23)[nH]n1 < 0.1 µM
